# Assay details: Metabolic stability in human hepatic microsome
# Assay type: in vitro ADME
# Run parameters: microsomes, pH 7.4; human hepatic microsome, NADPH(+); read-out: CL NADPH(+)
Positions of bridges follow the written chain, without caps; N, C: chain ends. Non-standard residues stand in square brackets, D forms with d. Residues, ends and D or L forms follow the SMILES beside them. *: point of attachment. NMeF = CN[C@@H](Cc1ccccc1)C(=O)O; NMeI = CC[C@H](C)[C@H](NC)C(=O)O; NMeL = CN[C@@H](CC(C)C)C(=O)O; NMeV = CN[C@H](C(=O)O)C(C)C; NMeA = CN[C@@H](C)C(=O)O; Piperidide = C1CCN(*)CC1; dNMeA = CN[C@H](C)C(=O)O; Sar = CNCC(=O)O; tBu = CC(C)(C)*
Quantity measured: microsomal CLint at 1 uM (µL/min/mg)

>  <Compound>
CC[C@H](C)[C@@H]1NC(=O)[C@H](CC(C)C)N(C)C(=O)CN(C)C(=O)[C@H](Cc2ccccc2)NC(=O)[C@H](C(C)C)N(C)C(=O)[C@H](C)N(C)C(=O)[C@H]([C@@H](C)O)NC(=O)[C@H](C)N(C)C(=O)C[C@@H](C(=O)N2CCCCC2)NC(=O)[C@H](C)NC1=O [DP-675] ([NMeA]T[NMeA][NMeV]F[Sar][NMeL]IAD-Piperidide; lactam N-10)

>  <Numeric readout>
22

$$$$
>  <Compound>
CC[C@H](C)[C@H]1C(=O)N(C)[C@@H](CC(C)C)C(=O)N(C)[C@@H](Cc2ccccc2)C(=O)N[C@@H]([C@@H](C)O)C(=O)N(C)[C@@H](Cc2ccccc2)C(=O)N(C)[C@@H](CC(C)C)C(=O)N(C)[C@@H](CC(C)C)C(=O)N[C@H](C(=O)N2CCCCC2)CC(=O)N[C@H](C(C)C)C(=O)N[C@@H](C)C(=O)N1C [DP-256] ([dV]A[NMeI][NMeL][NMeF]T[NMeF][NMeL][NMeL]D-Piperidide; lactam N-10)

>  <Numeric readout>
44

$$$$
>  <Compound>
CC(C)C[C@H]1C(=O)N[C@H](C(=O)N2CCCCC2)CC(=O)N(C)[C@H](C)C(=O)N(C)[C@@H](CC(C)C)C(=O)N[C@@H]([C@@H](C)O)C(=O)N(C)CC(=O)N[C@@H](COC(C)(C)C)C(=O)N1C [DP-536] ([dNMeA][NMeL]T[Sar]S(tBu)[NMeL]D-Piperidide; lactam N-7)

>  <Numeric readout>
113

$$$$
>  <Compound>
CC[C@H](C)[C@H](NC(=O)[C@H](CC(C)C)N(C)C(=O)[C@H](CC(C)C)NC(=O)[C@H](C)N(C)C(=O)[C@@H]1CC(=O)N[C@H](C(C)C)C(=O)N(C)[C@@H](CC(C)C)C(=O)N(C)[C@@H](CC(C)C)C(=O)N[C@@H](C)C(=O)N[C@@H](Cc2ccccc2)C(=O)N[C@@H]([C@@H](C)O)C(=O)N[C@@H](CC(C)C)C(=O)N(C)[C@@H](Cc2ccccc2)C(=O)N(C)[C@@H](CC(C)C)C(=O)N1)C(=O)N1CCCCC1 [DP-944] ([dV][NMeL][NMeL]AFTL[NMeF][NMeL]D[NMeA]L[NMeL]I-Piperidide; lactam N-10)

>  <Numeric readout>
20

$$$$
>  <Compound>
CC(C)C[C@@H]1NC(=O)CN(C)C(=O)[C@H](C)NC(=O)[C@H]([C@@H](C)O)NC(=O)[C@@H](C)N(C)C(=O)C[C@@H](C(=O)N2CCCCC2)NC(=O)[C@H](CC(C)C)N(C)C(=O)[C@H](CC(C)C)NC(=O)[C@H](C(C)C)N(C)C(=O)[C@H](CC(C)C)NC(=O)[C@H](Cc2ccccc2)NC1=O [DP-328] ([dNMeA]TA[Sar]LFL[NMeV]L[NMeL]D-Piperidide; lactam N-11)

>  <Numeric readout>
32

$$$$

Numbers sourced from patent US9409952B2.
